Target: T1, human PD-L2 (full-length, on cells) (human, UniProt Q9BQ51 20-273)
T1 chain: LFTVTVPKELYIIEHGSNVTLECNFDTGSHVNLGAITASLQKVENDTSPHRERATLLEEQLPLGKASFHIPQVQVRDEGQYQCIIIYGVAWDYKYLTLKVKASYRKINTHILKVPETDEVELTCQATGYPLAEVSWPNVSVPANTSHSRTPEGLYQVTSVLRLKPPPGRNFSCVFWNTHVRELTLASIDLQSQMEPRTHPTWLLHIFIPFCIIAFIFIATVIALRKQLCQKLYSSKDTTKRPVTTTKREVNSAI
Assay: blocking of hPD-1 binding to CHO-K1/hPD-L2 cells
observation type: IC50 (nM)
Write the number in nM without appending the unit.

// known answers, use as guide
{"columns": ["binder", "IC50 / nM"],
 "data": [
  ["12A1-D4 (antibody, V domains shown, Both formats under this entry) VH: QVQLQESGPGLVKPSGTLSLTCAVSGGSISSNNWWSWVRQPPGKGLEWIGEIFHVGSTNYNPSLKSRVTISVDKSKNQFSLKLSSLTAADTAVYYCARMVGATGHYYGMDVWGQGTTVTVSS VL: DIQLTQSPSFLSASVGDRVTITCRASQGISSSLAWYQQKPGKAPKFLIYAASTLQSGVPSRFSGSGSGTEFTLTISSLQPEDFATYYCQQLNSYPKSWTFGQGTKVEIK", 0.37],
  ["9A3-C7 (antibody, V domains shown, Both formats under this entry) VH: QVQLVESGGGLVKPGGSLRLSCAASGFSLSDYYMSWIRQAPGRGLEWVSYISSSGSTIYYVDSVKGRFTISRDNAKNSLYLQINSLRAEDTAVYHCARAQWLPDFDYWGQGTLVTVSS VL: QSALTQPPSASGSPGQSVTISCTGTSSDVGGYNYVSWYQHHPGKVPKLMIYEVSKRPSGVPDRFSGSKSGNTASLTVSGLQAEDEADYYCTSFADNNNVGFGGGTKLTVLG", 1.2]
]}

Suppose we examine the binder 10A9-D2 (antibody, V domains shown, Both formats under this entry) VH: QVQLQESGPGLVKPSETLSLTCAVSGGSISSSYWWSWVRQPPGKGLEWVGEVFHVGVTNYNPSLKSRVTISVDKSKNQFSLKLTSVTAADTAVYYCARVTGTTGYYHGLDVWGQGTTVTVFS VL: DIQMTQSPSSLSASVGDRVTITCRASQGIRNDLGWYQQKPGKVPKRLIYAASSLQSGIPSRFSGSGSGTEFTLTISSLQPEDFATYYCLQHNNYPRTFGQGTKVEIK ; what IC50 value has been reported?
0.34

Please do the same for 8B5-B1 (antibody, V domains shown, Both formats under this entry) VH: EVQLLESGGGLVQPGGSLKLSCAASGFTFSSYAMFWVRQAPGEGLAWVSAITGSGDHTYYADSVKDHFTISRDNSKNTLYLQMNSLKAEDTAVYYCAKDASGNSYGFPYWYFDLWGRGTLVTVSS VL: QSALTQPASVSGSPGQSITISCTGTSSDVAGYNFVSWYQHHPGKTPKLMIYDVTNRPSGVSTRFSGSKSGNTASLTISGLQAEDEADYYCSSFTSATTLVFGGGTKLTVLG as well.
0.94

Please do the same for 19C3-B3 (antibody, V domains shown, Both formats under this entry; also called 19C3-C3) VH: QVQLVESGGGVVQPGRSLRLSCAASGFAFSAYGMHWVRQAPGKGLEWVAISWYDGSNNYHADSVKGRFTISRDSSKNTLYLQMNSLRAEDTAVYYCAKSIGVARHYYYGMDVWGQGTTVTVSS VL: SYELTQPPSVSVSPGQTASITCSGEELGDKYACWYQQKPGQSPLLVIYQDSKRPSGIPERFSGSNSGNAATLTISGTQAMDEADYYCQAWDSITVIFGGGTKLTVLG as well.
0.43

Please do the same for 7H5-C5 (antibody, V domains shown, Both formats under this entry) VH: QVQLVESGGGLVKPGGSLRLSCAASGFSLSDYYMSWTRQAPGRGLEWVSFISSSGSTIYYVDSVKGRFTISRDHAKNSLYLQINSLRAEDTAVYYCARAQWLPDFDYWGQGTLVTVSS VL: QSALTQPPSASGSPGQSVTISCTGTSSDVSGYNYVSWYQHHPDKAPKLLIYEVNKRPSGVPARFSGSKSGNTASLTVSGLQAEDEADYYCTSFADNNNVVFGGGTKLTVLG as well.
0.93

Please do the same for 2C4-E4 (antibody, V domains shown, Both formats under this entry) VH: QVQLVQSGAEVKKPGASVKVSCKASGYTFTGYVMHWVRQAPGQRLEWMGWINADNGITKYSQKFQGRVTITRDTSASTAYMELTNLRSEDTAVYYCARATRGFGEFYFDYWGQGNLVTVSS VL: DIQMTQSPSTLSASVGDRVTITCRASQTISSWLAWYQQKPGKAPNLLIYKASSLESGVPSRFSGSGSGTEFTLTISSLQPDDFATYYCQQYYSYWTFGQGTKVEIK as well.
0.53
